These measurements were taken from patent US11998539B2.

study_system: DGKα (Homo sapiens (Human), UniProt P23743)
Sequence (P23743 other isoform, or with tags, fused parts or gaps): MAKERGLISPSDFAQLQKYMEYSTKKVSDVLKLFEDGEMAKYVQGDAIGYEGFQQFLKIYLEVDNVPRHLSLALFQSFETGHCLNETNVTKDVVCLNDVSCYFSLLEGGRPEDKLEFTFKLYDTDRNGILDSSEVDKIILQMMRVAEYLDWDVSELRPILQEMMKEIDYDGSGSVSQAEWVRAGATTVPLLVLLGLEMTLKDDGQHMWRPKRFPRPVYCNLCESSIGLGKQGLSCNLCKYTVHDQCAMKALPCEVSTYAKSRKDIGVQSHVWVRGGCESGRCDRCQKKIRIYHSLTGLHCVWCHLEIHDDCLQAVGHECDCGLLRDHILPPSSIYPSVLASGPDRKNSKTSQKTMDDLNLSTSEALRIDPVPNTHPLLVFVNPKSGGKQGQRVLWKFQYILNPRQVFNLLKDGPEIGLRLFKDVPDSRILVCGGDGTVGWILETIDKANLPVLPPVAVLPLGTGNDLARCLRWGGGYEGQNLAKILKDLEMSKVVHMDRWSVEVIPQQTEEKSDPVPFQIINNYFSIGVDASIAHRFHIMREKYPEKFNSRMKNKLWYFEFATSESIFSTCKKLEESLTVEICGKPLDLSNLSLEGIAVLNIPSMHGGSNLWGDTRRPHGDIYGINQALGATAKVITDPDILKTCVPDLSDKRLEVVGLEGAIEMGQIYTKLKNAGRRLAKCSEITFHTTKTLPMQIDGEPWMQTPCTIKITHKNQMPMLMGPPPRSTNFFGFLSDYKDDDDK
assay_remarks: Human DGKα kinase activity inhibition assay (ADP-Glo)
protocol_conditions: recombinant full-length human DGKα, 55 μM ATP, 7 μM 1,2-dioleoyl-sn-glycerol, read-out: IC50 values of examples in in vitro human DGKa kinase activity inhibition assays
Below, each entry is listed with its recorded IC50.

- compound: "Cn1c(=O)c(C#N)c(N2CCC(c3nc4ccccc4o3)CC2)c2ccccc21 [Example 2]"
  study_system: "DGKα (Homo sapiens (Human), UniProt P23743)"
  u: "nM"
  IC50: 6.4
- compound: "Cc1ccc2oc(C3(C)CCN(c4c(C#N)c(=O)n(C)c5c(C6CC6)cccc45)CC3)nc2c1 [Example 272]"
  study_system: "DGKα (Homo sapiens (Human), UniProt P23743)"
  u: "nM"
  IC50: 113
- compound: "CC(=O)c1ccc(C2(C)CCN(c3c(C#N)c(=O)n(C)c4ccccc34)CC2)cc1 [Example 335]"
  study_system: "DGKα (Homo sapiens (Human), UniProt P23743)"
  u: "nM"
  IC50: 2.3
- compound: "Cc1ccccc1-c1noc(C2CCN(c3c(C#N)c(=O)n(C)c4cc(O)c(Br)cc34)CC2)n1 [Example 531]"
  study_system: "DGKα (Homo sapiens (Human), UniProt P23743)"
  u: "nM"
  IC50: 8.1
- compound: "Cc1nc2ccc(C3CCN(c4c(C#N)c(=O)n(C)c5ccccc45)CC3)cc2o1 [Example 376]"
  study_system: "DGKα (Homo sapiens (Human), UniProt P23743)"
  u: "nM"
  IC50: 14
- compound: "Cn1c(=O)c(C#N)c(N2CCC(c3ccc(C(N)=O)cc3)CC2)c2ccccc21 [Example 330]"
  study_system: "DGKα (Homo sapiens (Human), UniProt P23743)"
  u: "nM"
  IC50: 217
- compound: "Cc1ccc2oc([C@H]3CCN(c4c(C#N)c(=O)n(C)c5ccccc45)[C@@H](C)C3)nc2c1 [Example 326]"
  study_system: "DGKα (Homo sapiens (Human), UniProt P23743)"
  u: "nM"
  IC50: 34
- compound: "COc1ccc2c(c1)c(N1CCC(c3nc4cc(C)ccc4o3)CC1)c(C(N)=O)c(=O)n2C [Example 501]"
  study_system: "DGKα (Homo sapiens (Human), UniProt P23743)"
  u: "nM"
  IC50: 21

###

study_system: DGKα (Homo sapiens (Human))
assay_remarks: Human DGKα kinase activity inhibition assay (ADP-Glo)
protocol_conditions: recombinant full-length human DGKα, 55 μM ATP, 7 μM 1,2-dioleoyl-sn-glycerol, read-out: IC50 values of examples in in vitro human DGKa kinase activity inhibition assays
Method: Human DGKα Kinase Activity Inhibition Assay Human DGKα inhibitory activity of compounds of the present invention was quantified employing the human DGKα kinase activity assay as described in the following paragraphs. In essence, the enzyme activity was measured by quantification of the adenosine-di-phosphate (ADP) generated as a co-product of the enzyme reaction via the “ADP-Glo™ Kinase Assay” kit from the company Promega. […]
pIC50: −log10 of the molar value.
Below, each entry is listed with its recorded pIC50.

- structure_string: "Cc1cccc(-c2nnc(C3CCN(c4c(C#N)c(=O)n(C)c5ccc(Br)cc45)CC3)o2)c1"
  pIC50: 8.04
- structure_string: "Cc1ccc2oc(C3(C)CCN(c4c(C#N)c(=O)n(C)c5cc(C6CC(F)(F)C6)ccc45)CC3)nc2c1"
  pIC50: 7.89
- structure_string: "Cn1c(=O)c(C(N)=O)c(N2CCC(c3nc4ccccc4o3)CC2)c2ccc(Cl)cc21"
  pIC50: 8.92
- structure_string: "Cn1c(=O)c(C#N)c(N2CCC(c3cc[nH]n3)CC2)c2ccccc21"
  pIC50: 6.62
- structure_string: "Cc1ccc2oc(C3(C)CCN(c4c(C#N)c(=O)n(C)c5ccc(OCC6(C#N)CC6)cc45)CC3)nc2c1"
  pIC50: 7.19
- structure_string: "Cn1c(=O)c(C(N)=O)c(N2CCC(c3nnc(-c4ccccc4)o3)CC2)c2cc(Br)ccc21"
  pIC50: 7.35
- structure_string: "Cc1ccc2c(c1)c(N1CCC(c3nc4ccc(Cl)cc4o3)CC1)c(C(N)=O)c(=O)n2C"
  pIC50: 8.57
- structure_string: "CN1C(=O)C(C)(C)c2cc(C3CCN(c4c(C#N)c(=O)n(C)c5ccccc45)CC3)ccc21"
  pIC50: 7.36

###

study_system: DGKα (Homo sapiens (Human), UniProt P23743)
assay_remarks: Human DGKα kinase activity inhibition assay (ADP-Glo)
protocol_conditions: recombinant full-length human DGKα, 55 μM ATP, 7 μM 1,2-dioleoyl-sn-glycerol, read-out: IC50 values of examples in in vitro human DGKa kinase activity inhibition assays

- structure_string: "Cn1c(=O)c(C(N)=O)c(N2CCC(c3nc4ccccc4o3)CC2)c2ccc(Br)cc21"
  u: "nM"
  IC50: 0.6
- structure_string: "Cn1c(=O)c(C#N)c(N2CCC(c3ccn(-c4cccc(Cl)c4)n3)CC2)c2ccccc21"
  u: "nM"
  IC50: 13
- structure_string: "Cn1c(=O)c(C#N)c(N2CCC(c3cccc(S(C)(=O)=O)c3)CC2)c2ccccc21"
  u: "nM"
  IC50: 333
- structure_string: "Cn1c(=O)c(C(N)=O)c(N2CCC(C)(c3nc4ccccc4o3)CC2)c2cc(F)ccc21"
  u: "nM"
  IC50: 0.5
- structure_string: "Cc1ccc2oc(C3(C)CCN(c4c(C#N)c(=O)n(C)c5ccc(S(C)(=O)=O)cc45)CC3)nc2c1"
  u: "nM"
  IC50: 47
- structure_string: "COc1ccc2c(c1)c(N1CCC(c3nc(-c4ccccc4C)no3)CC1)c(C(N)=O)c(=O)n2C"
  u: "nM"
  IC50: 44
- structure_string: "COc1ccc(C2CCN(c3c(C#N)c(=O)n(C)c4cc(C5COC5)ccc34)CC2)cc1"
  u: "nM"
  IC50: 33
- structure_string: "CC[C@H](C)c1ccc2c(N3CCC(C)(c4nc5cc(C)ccc5o4)CC3)c(C#N)c(=O)n(C)c2c1"
  u: "nM"
  IC50: 53

###

study_system: DGKα (Homo sapiens (Human))
assay_remarks: Human DGKα kinase activity inhibition assay (ADP-Glo)
protocol_conditions: recombinant full-length human DGKα, 55 μM ATP, 7 μM 1,2-dioleoyl-sn-glycerol, read-out: IC50 values of examples in in vitro human DGKa kinase activity inhibition assays
Description: Human DGKα Kinase Activity Inhibition Assay Human DGKα inhibitory activity of compounds of the present invention was quantified employing the human DGKα kinase activity assay as described in the following paragraphs. In essence, the enzyme activity was measured by quantification of the adenosine-di-phosphate (ADP) generated as a co-product of the enzyme reaction via the “ADP-Glo™ Kinase Assay” kit from the company Promega. […]
Below, each entry is listed with its recorded IC50.

- molecule: "Cc1ccc2oc(C3(C)CCN(c4c(C#N)c(=O)n(C)c5cc(NC6CC6)ccc45)CC3)nc2c1"
  study_system: "DGKα (Homo sapiens (Human))"
  IC50: "1.4 nM"
- molecule: "CC(C)Oc1ccc(C2CCN(c3c(C(N)=O)c(=O)n(C)c4ccccc34)CC2)cc1"
  study_system: "DGKα (Homo sapiens (Human))"
  IC50: "0.3 nM"
- molecule: "COc1ccc2c(N3CCC(c4nc5ccc(Cl)cc5o4)CC3)c(C#N)c(=O)n(C)c2c1"
  study_system: "DGKα (Homo sapiens (Human))"
  IC50: "29 nM"
- molecule: "Cc1ccc2oc(C3(C)CCN(c4c(C#N)c(=O)n(C)c5cc(Br)ccc45)CC3)nc2c1"
  study_system: "DGKα (Homo sapiens (Human))"
  IC50: "2.6 nM"
- molecule: "Cn1c(=O)c(C(N)=O)c(N2CCC(C)(c3nc4ccccc4o3)CC2)c2ccc(F)cc21"
  study_system: "DGKα (Homo sapiens (Human))"
  IC50: "1.9 nM"
- molecule: "Cc1ccc2oc(C3(C)CCN(c4c(C#N)c(=O)n(C)c5ccc(OC6CC6)cc45)CC3)nc2c1"
  study_system: "DGKα (Homo sapiens (Human))"
  IC50: "152 nM"
- molecule: "Cn1c(=O)c(C#N)c(N2CCC(c3nc4cc(N5CCCC5=O)ccc4o3)CC2)c2ccccc21"
  study_system: "DGKα (Homo sapiens (Human))"
  IC50: "100 nM"
- molecule: "CCC1(c2nc3cc(C)ccc3o2)CCN(c2c(C#N)c(=O)n(C)c3ccccc23)CC1"
  study_system: "DGKα (Homo sapiens (Human))"
  IC50: "1.6 nM"
- molecule: "Cc1ccc2oc(C3CCN(c4c(C#N)c(=O)n(C)c5cc(OCC6CO6)ccc45)CC3)nc2c1 (stereo not shown)"
  study_system: "DGKα (Homo sapiens (Human))"
  IC50: "1.8 nM"
- molecule: "Cn1c(=O)c(C(N)=O)c(N2CCC(c3nnc(-c4cccc(C(F)(F)F)c4)o3)CC2)c2cc(Br)ccc21"
  study_system: "DGKα (Homo sapiens (Human))"
  IC50: "20 nM"
- molecule: "Cn1c(=O)c(C#N)c(N2CCC(C)(c3nc4ccccc4o3)CC2)c2cccc(Br)c21"
  study_system: "DGKα (Homo sapiens (Human))"
  IC50: "182 nM"
- molecule: "Cc1ccc2oc(C3CCN(c4c(C#N)c(=O)n(C)c5cc(O)ccc45)CC3)nc2c1"
  study_system: "DGKα (Homo sapiens (Human))"
  IC50: "2.1 nM"
- molecule: "CCCOc1ccc2c(N3CCC(C)(c4nc5cc(C)ccc5o4)CC3)c(C#N)c(=O)n(C)c2c1"
  study_system: "DGKα (Homo sapiens (Human))"
  IC50: "26 nM"
- molecule: "Cn1c(=O)c(C#N)c(N2CCC(c3ccc(Oc4ccccc4)cc3)CC2)c2ccccc21"
  study_system: "DGKα (Homo sapiens (Human))"
  IC50: "17 nM"
- molecule: "Cn1c(=O)c(C(N)=O)c(N2CCC(c3ccc4c(c3)CC(O)C4)CC2)c2ccccc21 (stereo not shown)"
  study_system: "DGKα (Homo sapiens (Human))"
  IC50: "3.9 nM"
- molecule: "Cc1ccc2c(N3CCC(c4ccccc4)CC3)c(C#N)c(=O)n(C)c2c1"
  study_system: "DGKα (Homo sapiens (Human))"
  IC50: "18 nM"
